Every entry's value here was drawn from the nanobody polyreactivity screen of Harvey et al. (2022).

# assay explanation: yeast display, Sf9 membrane polyspecificity reagent, FACS + sequencing; frameworks hold sequencing errors
measured metric: polyreactivity (PSR sort gate)

Example results:
Which polyreactivity (PSR sort gate) value belongs to `QVHLVESGGGLVQAGGSLRLSCAASGFIFPAYVMGWYRQAPGKERELVAVIGSGGSTSYADSVKGRFTISRDNAKNTVYLQMNSLKPEDTAVYYCTADPTWFGYVYYQYDYWGQGTKVTVSS` ?
low polyreactivity

Same for `QVQLVESGGGLVQAGGSLRLSCAASGFIFLVNAMGWYRGAPGKERELVAAISKSTGGTYYADSVKGRFTISRDNAKNTVYLQMNSLKPEDTAVYYCAADEVYPVQRDMDYWGQGTQVTVSS`
low polyreactivity

Again, but for `QVQLVESGGGLVQAGGSLRLICAASGITFPSNTMGWYRQAPGKERELVAAITRGDNTYYADSVKGRFTISRDNAKNTVYLQMNSLKPEYTAVYYCATEGYQIQYEHDYWGQGTIVTVSS`
low polyreactivity

What do you get for `QVQLVESGGGLVQAGGSLRLSCAASGSTFIKNAMGWYRQAPGKERELVAAISSSASSTYYADSVKGRFTISRDNAKNTVYLQMNSLKPEDTAVYYCAARASRKYNYWGQGTQVTVSS` ?
high polyreactivity

Another sequence to check: `QVQLVESGGGLVQAGGSLRLSCAASGFTFLFNAMGWYRQAPGKERELVADITWSGGSTYYADSVKGRFTISRDNAKNTVYLQMNSLKPEDTAVYYCAASDDWSTPIYYYSVFDYDYWGQGTQVTVSS`
high polyreactivity

Query `QDQLGESGGGLVQAGGSLRLSCAAAGSIFGTNAMGWYRQAPGKEREFVATISSRTGSTYYADSVKGRFTISRDNAKNRVYLQMNSLKPEDPAVYYCAAVRWYGKYDDWGQGTQVTVSS` next
low polyreactivity

Further cases:
Item `QVQLEESGGGLVQAGGSLRLSSAASGFTFAFYAMGWYRQAPGKERELVAAISRRGGSTTYADSVKGRFTISRDNAKNTVYLQMNSLKPEDTAVYYCNAVSTRNPGPDYYYWGQGTQVNVSS` has what recorded polyreactivity (PSR sort gate)?
high polyreactivity

`QVQLVESGGGLVQAGGSLRLSCAASGFTFRYYAMGWYRQAPGKERELVASINWSGGSTYYADSVKGRFTISRDNAKNTVYFQMNSLKPEDTAVYYCAADSIWGHYFARFDYWVQGTQVTVSS` , same question.
high polyreactivity

Another sequence: `QVQLLESGGGLVQSGGSLRLSCAASGLTFGSNAMGWYRQATGKEREMVAAISYGGGSTSYADSVKGRFTISRDNAKNTVYLQMNSLKPEDTSVYYCAVVWLCAYSRTNYYYWGQGTQVTVSS`
low polyreactivity

Also check `QVQLVESGGGLVQAGGSLRLSCAASGSIFHGNAMGWYRQAHGKERELVAVISDGGSTDYADSVKGRFTISRDNANNSVYLQMTSLKPEDTAVYYCNAAYDTQYFYRKHIYYLSGYDYWGQGTQVTVSS`
low polyreactivity

Next sequence: `QVQLVESGGGLVQAGGSLRLSCAASGNTFRDYAMGWYRQAPGKERELVAAITSSGARTYYADSVKGRFTISRDNAKNTVYLQMNSLKPEDTAVYYCAADWSGYYTYDYWGQGTQVTVSS`
low polyreactivity
